STUDY_TARGET: Human recombinant MMP-2 (Homo sapiens)
Construct: made in house; host or cells: MMP-2-transfected p2AHT2 cells
Sequence (P08253 110-660): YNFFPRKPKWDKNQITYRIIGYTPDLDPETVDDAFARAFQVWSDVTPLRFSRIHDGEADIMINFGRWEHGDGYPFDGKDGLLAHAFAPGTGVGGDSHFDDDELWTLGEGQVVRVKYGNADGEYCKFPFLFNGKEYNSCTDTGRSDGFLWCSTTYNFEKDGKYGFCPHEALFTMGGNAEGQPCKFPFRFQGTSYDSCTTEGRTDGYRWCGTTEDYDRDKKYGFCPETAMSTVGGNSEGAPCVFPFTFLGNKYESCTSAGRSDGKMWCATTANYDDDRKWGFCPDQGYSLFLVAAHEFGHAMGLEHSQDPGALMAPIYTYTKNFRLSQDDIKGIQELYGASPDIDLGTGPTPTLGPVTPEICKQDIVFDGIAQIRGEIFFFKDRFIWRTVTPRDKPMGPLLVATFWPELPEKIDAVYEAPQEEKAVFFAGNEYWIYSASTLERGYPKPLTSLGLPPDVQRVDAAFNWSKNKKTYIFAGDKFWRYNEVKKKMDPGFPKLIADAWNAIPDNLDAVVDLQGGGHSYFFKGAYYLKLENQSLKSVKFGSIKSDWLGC
EXPERIMENT: In vitro MMP inhibition, IC50 determination (fluorogenic substrate I)
Format: biochemical
RUN_CONDITIONS: value outside parenthesis
# note: boundary value 80 nM maps to NO; IC50 below it maps to YES

Worked set:
{"MOLECULE": "O=C(NO)C1(S(=O)(=O)c2ccc(OCCCc3cccc(-c4cc(F)cc(F)c4)c3)cc2)CCOCC1 [Example 159]", "STUDY_TARGET": "Human recombinant MMP-2 (Homo sapiens)", "DISCRETE_LABEL": "NO"}
{"MOLECULE": "NC(=O)c1cccc(-c2noc(CCCOc3ccc(S(=O)(=O)C4(C(=O)NO)CCN(C5CC5)CC4)cc3)n2)c1 [Example 131]", "STUDY_TARGET": "Human recombinant MMP-2 (Homo sapiens)", "DISCRETE_LABEL": "NO"}
{"MOLECULE": "CC(C)(C)c1ccc(-c2nnc(CCCOc3ccc(S(=O)(=O)C4(C(=O)NO)CCOCC4)cc3)o2)cc1 [Example 278]", "STUDY_TARGET": "Human recombinant MMP-2 (Homo sapiens)", "DISCRETE_LABEL": "NO"}
{"MOLECULE": "O=C(CCCOc1ccc(S(=O)(=O)C2(C(=O)NO)CCOCC2)cc1)NNC(=O)c1ccc(Cl)cc1 [Example 272]", "STUDY_TARGET": "Human recombinant MMP-2 (Homo sapiens)", "DISCRETE_LABEL": "YES"}
{"MOLECULE": "COCCN1CCC(C(=O)NO)(S(=O)(=O)c2ccc(OCCCc3nc(-c4ccc(C5(c6ccccc6)CC5)cc4)no3)cc2)CC1 [Example 185]", "STUDY_TARGET": "Human recombinant MMP-2 (Homo sapiens)", "DISCRETE_LABEL": "NO"}

Determine if COCCN1CCC(C(=O)NO)(S(=O)(=O)c2ccc(OCCCn3nnc(-c4ccccc4C)n3)cc2)CC1 [Example 151] shows IC50 strictly lower than 80 nM. YES

Determine if COCCN1CCC(C(=O)NO)(S(=O)(=O)c2ccc(OCCCc3nc(-c4ccc(CCC(C)C)cc4C)no3)cc2)CC1 [Example 100] shows IC50 strictly lower than 80 nM. NO

Determine if O=C(NO)C1(S(=O)(=O)c2ccc(OCCCSc3nc4ccccc4s3)cc2)CCOCC1 [Example 288] shows IC50 strictly lower than 80 nM. YES

Determine if O=C(NO)C1(S(=O)(=O)c2ccc(OCCc3cccc(-c4cc(F)cc(F)c4)c3)cc2)CCOCC1 [Example 110] shows IC50 strictly lower than 80 nM. NO

---

STUDY_TARGET: Human recombinant MMP-2 (Homo sapiens)
Construct: made in house; host or cells: MMP-2-transfected p2AHT2 cells
EXPERIMENT: In vitro MMP inhibition, Ki determination (fluorogenic substrate II)
Format: biochemical
RUN_CONDITIONS: value in parentheses
# note: boundary value 70 nM maps to N; Ki below it maps to Y

{"RECORD_SMILES": "CCN1CCC(C(=O)NO)(S(=O)(=O)c2ccc(OCCCc3cccc(-c4ccc(Cl)cc4)c3)cc2)CC1", "DISCRETE_LABEL": "N"}

Determine if "O=C(NO)C1(S(=O)(=O)c2ccc(OCCCc3cccc(-c4ccc([N+](=O)[O-])cc4)c3)cc2)CCOCC1" shows Ki strictly lower than 70 nM. N

Determine if "COCCN1CCC(C(=O)NO)(S(=O)(=O)c2ccc(OCCc3cccc(-c4ccncc4)c3)cc2)CC1" shows Ki strictly lower than 70 nM. Y

Determine if "CCCc1ccc(CCCOc2ccc(S(=O)(=O)C3(C(=O)NO)CCOCC3)cc2)cn1" shows Ki strictly lower than 70 nM. Y

Determine if "COCCN1CCC(C(=O)NO)(S(=O)(=O)c2ccc(OCCCc3cncc(-c4ccccc4)c3)cc2)CC1" shows Ki strictly lower than 70 nM. Y

Determine if "CCC(=O)c1cccc(CCCOc2ccc(S(=O)(=O)C3(C(=O)NO)CCOCC3)cc2)c1" shows Ki strictly lower than 70 nM. N

Determine if "O=C(NO)C1(S(=O)(=O)c2ccc(OCCCc3cc(-c4ccc(F)cc4F)cs3)cc2)CCOCC1" shows Ki strictly lower than 70 nM. N

Determine if "O=C(NCCOc1ccc(S(=O)(=O)C2(C(=O)NO)CCOCC2)cc1)c1cc2ccccc2[nH]1" shows Ki strictly lower than 70 nM. Y

Determine if "COCCN1CCC(C(=O)NO)(S(=O)(=O)c2ccc(OCCNC(=O)c3cc4ccccc4o3)cc2)CC1" shows Ki strictly lower than 70 nM. Y

Determine if "O=C(NO)C1(S(=O)(=O)c2ccc(OCCCOc3cccnc3)cc2)CCOCC1" shows Ki strictly lower than 70 nM. Y

Determine if "COCCN1CCC(C(=O)NO)(S(=O)(=O)c2ccc(OCCCc3cccc(-c4cccnc4)c3)cc2)CC1" shows Ki strictly lower than 70 nM. N

Determine if "O=C(NO)C1(S(=O)(=O)c2ccc(OCCCc3cncc(Br)c3)cc2)CCOCC1" shows Ki strictly lower than 70 nM. Y

Determine if "CCCc1ccc(COc2ccc(S(=O)(=O)C3(C(=O)NO)CCOCC3)cc2)cn1" shows Ki strictly lower than 70 nM. Y
